Molecular target: T1, human iRhom2, endogenously expressed (human, UniProt Q6PJF5 1-856)
T1 sequence: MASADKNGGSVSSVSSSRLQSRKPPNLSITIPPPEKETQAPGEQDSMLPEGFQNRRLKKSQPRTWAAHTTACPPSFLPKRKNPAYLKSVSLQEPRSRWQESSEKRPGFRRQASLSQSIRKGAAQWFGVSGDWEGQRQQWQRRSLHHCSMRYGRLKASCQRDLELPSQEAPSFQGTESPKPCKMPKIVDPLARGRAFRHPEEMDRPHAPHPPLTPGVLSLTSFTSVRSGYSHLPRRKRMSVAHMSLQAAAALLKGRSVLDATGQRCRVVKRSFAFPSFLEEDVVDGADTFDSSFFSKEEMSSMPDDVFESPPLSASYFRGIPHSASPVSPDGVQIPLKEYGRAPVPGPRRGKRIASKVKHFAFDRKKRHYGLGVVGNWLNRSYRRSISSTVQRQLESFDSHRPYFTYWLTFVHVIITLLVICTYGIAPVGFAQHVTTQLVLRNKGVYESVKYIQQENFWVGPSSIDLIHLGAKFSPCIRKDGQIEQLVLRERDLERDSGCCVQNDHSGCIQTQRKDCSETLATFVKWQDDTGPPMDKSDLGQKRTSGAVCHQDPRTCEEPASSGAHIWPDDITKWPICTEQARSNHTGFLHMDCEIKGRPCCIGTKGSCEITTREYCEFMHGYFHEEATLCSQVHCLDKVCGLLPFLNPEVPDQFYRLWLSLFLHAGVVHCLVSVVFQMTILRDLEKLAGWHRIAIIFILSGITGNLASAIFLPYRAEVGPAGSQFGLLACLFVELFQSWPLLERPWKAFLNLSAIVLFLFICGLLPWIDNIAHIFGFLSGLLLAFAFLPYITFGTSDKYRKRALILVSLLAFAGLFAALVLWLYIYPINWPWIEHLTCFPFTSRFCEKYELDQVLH
Assay: cell-based or functional assay
Each record here notes measured PMA-induced IL-6R release from U-937 cells, percent inhibition, 3 µg/ml.
For clarity, give the value followed by its unit.

Record request: PMA-induced IL-6R release from U-937 cells, percent inhibition, 3 µg/ml value, item antibody 34 (antibody, V domains shown, mouse IgG, kappa light chain; also called clone #34; purified antibody 34) VH: QVTLKESGPGILQPSQTLSLTCSFSGFSLSTFSLGVGWIRQSSGKGLEWLAHIWWDDEKYYNPALKSRLTISKDTSKNQVFLKIANVDAADTATYYCARAYYSKSYYALDYWGQGTSVTVSS VL: DIQMTQSPSSLSASLGERVSLTCRASQEISGYLSWLQQKPDGTIKRLIYAASTLDSGVPKRFSGSRSGSDYSLAISSLESEDFADYYCLQYANFPFTFGSGTKLEIK 74.6%

Quick one: PMA-induced IL-6R release from U-937 cells, percent inhibition, 3 µg/ml of chimeric antibody 22 (antibody, V domains shown) VH: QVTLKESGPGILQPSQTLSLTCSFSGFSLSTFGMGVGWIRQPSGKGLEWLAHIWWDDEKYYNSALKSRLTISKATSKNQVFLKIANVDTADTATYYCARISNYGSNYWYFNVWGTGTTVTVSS VL: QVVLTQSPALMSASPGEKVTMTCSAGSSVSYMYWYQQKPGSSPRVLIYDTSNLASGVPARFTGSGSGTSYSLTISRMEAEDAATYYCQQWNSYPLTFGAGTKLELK ? 85.6%
